From: patent US20110105496A1

# Test system: alpha-MyHC
# Method description: alpha-MyHC cytoblot process in neonatal rat ventricular myocytes (NRVM)
# Assay type: cell-based
# Protocol conditions: Table 1; NRVM, 72 hours, alpha-MyHC cytoblot; mean ± spread
Each entry below carries its recorded log10(EC50).
Assay metric: log10(EC50) (log10 of the value in nM)

CC(=O)C1=C(C)Nc2sc(C(=O)c3ccccn3)c(N)c2C1c1ccccc1 (stereo not drawn): 3.63
CC(=O)C1=C(C)Nc2sc(C(=O)c3ccccc3)c(N)c2C1c1ccc(Cl)cc1 (stereo not drawn): 2.77
CC(=O)C1=C(C)Nc2sc(C(=O)c3ccc(Cl)c(Cl)c3)c(N)c2C1c1ccccc1Cl (stereo not drawn): 1.92
CC(=O)C1=C(C)Nc2sc(C(=O)c3ccccc3)c(N)c2C1c1ccc(C(F)(F)F)cc1 (stereo not drawn): 3.24
CC(=O)C1=C(C)Nc2sc(C(=O)c3ccc(Cl)c(Cl)c3)c(N)c2C1c1ccc(F)cc1 (stereo not drawn): 2.21
CC(=O)C1=C(C)Nc2sc(C(=O)c3ccc(Cl)c(Cl)c3)c(N)c2C1c1cccs1 (stereo not drawn): 2.57
CCC(=O)C1=C(CC)Nc2sc(C(=O)c3ccc(Cl)c(Cl)c3)c(N)c2C1c1cccnc1 (stereo not drawn): 1.79
CCC(=O)C1=C(CC)Nc2sc(C(=O)c3cccnc3)c(N)c2C1c1ccnc(F)c1 (stereo not drawn): 1.02
CC(=O)C1=C(C)Nc2sc(C(=O)c3ccc(Cl)c(Cl)c3)c(N)c2C1c1ccc(O)cc1Cl (stereo not drawn): 1.19

====

# Tested on: alpha-MyHC
# Method description: alpha-MyHC cytoblot process in neonatal rat ventricular myocytes (NRVM)
# Assay type: cell-based
# Protocol conditions: Table 1; NRVM, 72 hours, alpha-MyHC cytoblot; mean ± spread
pEC50: −log10 of the molar value.
Assay metric: pEC50

COc1ccc(C2C(C(C)=O)=C(C)Nc3sc(C(=O)c4ccccc4)c(N)c32)cc1 (stereo not drawn): 5.52
CCC(=O)C1=C(CC)Nc2sc(C(=O)c3ccc(Cl)c(C)c3)c(N)c2C1c1ccccc1 (stereo not drawn): 8.01
CC(=O)C1=C(C)Nc2sc(C(=O)c3ccc(C)c(C)c3)c(N)c2C1c1ccccc1 (stereo not drawn): 6.10
CCC(=O)C1=C(CC)Nc2sc(C(=O)c3ccc(Cl)cc3)c(N)c2C1c1ccccc1 (stereo not drawn): 6.99
CC(=O)C1=C(C)Nc2sc(C(=O)c3ccc(Cl)c(Cl)c3)c(N)c2C1c1ccccc1O (stereo not drawn): 5.90
CC(=O)C1=C(C)Nc2sc(C(=O)c3ccc(Cl)c(Cl)c3)c(N)c2C1c1ccc(Br)cc1 (stereo not drawn): 5.68
CCC(=O)C1=C(CC)Nc2sc(C(=O)c3ccc(Cl)c(Cl)c3)c(N)c2C1c1cc(F)cc(F)c1 (stereo not drawn): 8.24
CCC(=O)C1=C(CC)Nc2sc(C(=O)c3ccc(F)c(F)c3)c(N)c2C1c1cc(F)cc(F)c1 (stereo not drawn): 8.43
CCC(=O)C1=C(CC)Nc2sc(C(=O)c3ccc(Cl)c(Cl)c3)c(N)c2C1c1ccccc1 (stereo not drawn): 8.21
CCC(=O)C1=C(CC)Nc2sc(C(=O)c3ccccc3F)c(N)c2C1c1ccccc1 (stereo not drawn): 7.92
CCC(=O)C1=C(CC)Nc2sc(C(=O)c3ccc(Cl)c(Cl)c3)c(N)c2C1c1cccc(Cl)c1 (stereo not drawn): 9.23
CCC(=O)C1=C(CC)Nc2sc(C(=O)c3ccc(Cl)c(Cl)c3)c(N)c2C1c1ccccc1[N+](=O)[O-] (stereo not drawn): 6.37
CCC(=O)C1=C(CC)Nc2sc(C(=O)c3cccc(C(=O)OC)c3)c(N)c2C1c1ccccc1 (stereo not drawn): 8.01
CC(=O)C1=C(C)Nc2sc(C(=O)c3ccccc3)c(N)c2C1c1ccc(F)cc1 (stereo not drawn): 6.55
CC(=O)C1=C(C)Nc2sc(C(=O)c3ccc(Cl)c(Cl)c3)c(N)c2C1c1ccc(C(F)(F)F)cc1 (stereo not drawn): 5.29
CCC(=O)C1=C(CC)Nc2sc(C(=O)c3ccc(Cl)c(Cl)c3)c(N)c2C1c1ccccc1Cl (stereo not drawn) [Compound 38]: 7.79
CCC(=O)C1=C(CC)Nc2sc(C(=O)c3cc(C(F)(F)F)cc(C(F)(F)F)c3)c(N)c2C1c1ccccc1 (stereo not drawn): 8.05
CCC(=O)C1=C(CC)Nc2sc(C(=O)c3ccc(Cl)c(Cl)c3)c(N)c2C1c1ccnc(F)c1 (stereo not drawn): 8.30
CCC(=O)C1=C(CC)Nc2sc(C(=O)c3ccc(Cl)c(Cl)c3)c(N)c2C1c1ccccc1C (stereo not drawn): 7.37
CC(=O)C1=C(C)Nc2sc(C(=O)c3ccccc3)c(N)c2C1c1ccncc1 (stereo not drawn): 5.47
CCC(=O)C1=C(CC)Nc2sc(C(=O)c3ccc(F)cc3)c(N)c2C1c1ccccc1 (stereo not drawn): 7.39
CC(=O)C1=C(C)Nc2sc(C(=O)c3ccc(Cl)c(Cl)c3)c(N)c2C1c1cc(Cl)cc(Cl)c1 (stereo not drawn): 5.71
CC(=O)C1=C(C)Nc2sc(C(=O)c3cccc(Br)c3)c(N)c2C1c1ccccc1 (stereo not drawn): 7.31
CCC(=O)C1=C(CC)Nc2sc(C(=O)c3ccc(Cl)c(Cl)c3)c(N)c2C1c1ccnc(Cl)c1 (stereo not drawn): 8.28
CCC(=O)C1=C(CC)Nc2sc(C(=O)c3ccccc3)c(N)c2C1c1c(F)cccc1F (stereo not drawn): 7.50
CCC(=O)C1=C(CC)Nc2sc(C(=O)c3ccc(Cl)c(Cl)c3)c(N)c2C1c1ccc(OC)cc1F (stereo not drawn): 6.46
CCC(=O)C1=C(CC)Nc2sc(C(=O)c3ccc(F)c(F)c3)c(N)c2C1c1ccccc1 (stereo not drawn): 8.03
CCC(=O)C1=C(CC)Nc2sc(C(=O)c3ccc(Cl)c(Cl)c3)c(N)c2C1c1ccccc1Cl (stereo not drawn) [Compound 53]: 7.24
CCC(=O)C1=C(CC)Nc2sc(C(=O)c3cccc(C(=O)O)c3)c(N)c2C1c1ccccc1 (stereo not drawn): 5.67
CCC(=O)C1=C(CC)Nc2sc(C(=O)c3cccc([N+](=O)[O-])c3)c(N)c2C1c1ccccc1F (stereo not drawn): 8.79
